system name: Prolyl endopeptidase (Homo sapiens)
Sequence (P48147 whole entry): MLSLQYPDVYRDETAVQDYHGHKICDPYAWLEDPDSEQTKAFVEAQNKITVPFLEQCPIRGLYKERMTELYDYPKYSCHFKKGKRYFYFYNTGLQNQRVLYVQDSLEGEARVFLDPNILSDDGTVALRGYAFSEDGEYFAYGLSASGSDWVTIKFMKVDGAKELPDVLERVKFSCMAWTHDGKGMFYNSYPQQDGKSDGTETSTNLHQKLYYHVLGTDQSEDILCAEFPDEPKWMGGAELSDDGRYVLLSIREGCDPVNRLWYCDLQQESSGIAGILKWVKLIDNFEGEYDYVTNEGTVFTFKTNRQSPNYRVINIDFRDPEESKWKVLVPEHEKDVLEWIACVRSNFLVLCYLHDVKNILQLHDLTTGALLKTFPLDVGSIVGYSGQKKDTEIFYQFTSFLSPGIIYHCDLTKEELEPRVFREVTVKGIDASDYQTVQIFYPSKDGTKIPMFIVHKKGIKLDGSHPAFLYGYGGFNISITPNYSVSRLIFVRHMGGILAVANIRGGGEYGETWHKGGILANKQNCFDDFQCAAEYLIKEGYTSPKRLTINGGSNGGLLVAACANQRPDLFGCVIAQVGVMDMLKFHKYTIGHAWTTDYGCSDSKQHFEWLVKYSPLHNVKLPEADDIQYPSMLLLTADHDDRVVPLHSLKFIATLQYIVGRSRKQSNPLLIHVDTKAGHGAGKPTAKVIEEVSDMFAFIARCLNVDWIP
assay protocol: Inhibition of human recombinant PREP expressed in Escherichia coli BL21(DE3) using N-succinyl-Gly-Pro-AMC as substrate incubated for 15 mins by fluorescence based analysis
metric name: IC50

{"columns": ["compound structure string", "system name", "metric name", "observed value"],
 "data": [
  ["O=C(N[C@H]1CC[C@H](O)CC1)OC12CC3CC(CC(NCC(=O)N4Cc5ccccc5C4)(C3)C1)C2", "Prolyl endopeptidase (Homo sapiens)", "IC50", "> 10 µM"],
  ["CC(C)(OC(=O)NC12CC3CC(CC(NCC(=O)N4Cc5ccccc5C4)(C3)C1)C2)C(Cl)(Cl)Cl", "Prolyl endopeptidase (Homo sapiens)", "IC50", "> 10 µM"],
  ["O=C(NCCCCO)OC12CC3CC(CC(NCC(=O)N4Cc5ccccc5C4)(C3)C1)C2", "Prolyl endopeptidase (Homo sapiens)", "IC50", "> 10 µM"],
  ["O=C(NC12CC3CC(CC(C3)C1)C2)NC12CC3CC(CC(NCC(=O)N4Cc5ccccc5C4)(C3)C1)C2", "Prolyl endopeptidase (Homo sapiens)", "IC50", "> 10 µM"],
  ["CC(C)(C)OC(=O)NC12CC3CC(CC(NCC(=O)N4Cc5cc(F)c(F)cc5C4)(C3)C1)C2", "Prolyl endopeptidase (Homo sapiens)", "IC50", "> 10 µM"],
  ["CC(C)(C)NC(=O)NC12CC3CC(CC(NCC(=O)N4Cc5ccccc5C4)(C3)C1)C2", "Prolyl endopeptidase (Homo sapiens)", "IC50", "> 10 µM"],
  ["O=C(NC12CC3CC(CC(C3)C1)C2)OC12CC3CC(CC(NCC(=O)N4Cc5ccccc5C4)(C3)C1)C2", "Prolyl endopeptidase (Homo sapiens)", "IC50", "> 10 µM"],
  ["O=C(NC(c1ccccc1)c1ccccc1)OC12CC3CC(CC(NCC(=O)N4Cc5ccccc5C4)(C3)C1)C2", "Prolyl endopeptidase (Homo sapiens)", "IC50", "> 10 µM"]
]}

---

system name: UniProt:P27487
Sequence (P27487 whole entry): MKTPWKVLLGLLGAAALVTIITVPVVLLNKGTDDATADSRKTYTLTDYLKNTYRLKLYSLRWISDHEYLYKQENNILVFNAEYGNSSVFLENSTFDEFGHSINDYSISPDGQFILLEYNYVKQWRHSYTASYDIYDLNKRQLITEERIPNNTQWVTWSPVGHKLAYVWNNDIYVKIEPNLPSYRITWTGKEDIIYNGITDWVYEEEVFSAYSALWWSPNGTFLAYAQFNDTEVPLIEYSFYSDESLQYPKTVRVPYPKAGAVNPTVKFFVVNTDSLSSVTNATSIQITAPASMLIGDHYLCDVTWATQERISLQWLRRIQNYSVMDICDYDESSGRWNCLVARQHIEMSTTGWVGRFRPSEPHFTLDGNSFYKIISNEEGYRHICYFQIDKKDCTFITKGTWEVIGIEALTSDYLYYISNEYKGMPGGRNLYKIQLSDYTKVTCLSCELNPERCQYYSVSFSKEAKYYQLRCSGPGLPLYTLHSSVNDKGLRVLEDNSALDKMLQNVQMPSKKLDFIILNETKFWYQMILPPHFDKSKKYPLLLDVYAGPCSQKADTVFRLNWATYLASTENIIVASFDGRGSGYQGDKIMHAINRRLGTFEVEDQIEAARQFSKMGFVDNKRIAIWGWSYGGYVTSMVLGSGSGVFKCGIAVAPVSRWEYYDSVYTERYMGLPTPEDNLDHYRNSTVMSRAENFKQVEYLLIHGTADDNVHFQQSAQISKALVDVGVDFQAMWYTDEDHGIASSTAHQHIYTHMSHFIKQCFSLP
assay protocol: Inhibition of DPP4 (unknown origin)

{"columns": ["molecule", "uom", "value qualifier", "IC50"],
 "data": [
  ["N[C@H](C(=O)N1Cc2ccccc2C1)C1CCC(O)CC1 (some centres not stated)", "µM", "=", 3.5],
  ["CCCCOC12CC3CC(CC(NCC(=O)N4Cc5ccccc5C4)(C3)C1)C2", "µM", ">", 10]
]}

---

assay protocol: AUC(0 to end) in Wistar rat at 20 mg/kg, po measured upto 24 hrs by LC/MS-MS analysis
Assay type: ADME, organism-based
Parameters: time < 24 hrs, dose 20 mg/kg, route po
recorded conditions: in vivo

{"columns": ["compound structure string", "AUC at 24 h / ng·h/mL"],
 "data": [
  ["CC(C)(C)OC(=O)NC12CC3CC(CC(NCC(=O)N4Cc5cc(F)c(F)cc5C4)(C3)C1)C2", 63.4]
]}

---

system name: Dipeptidyl peptidase 2 (Homo sapiens, UniProt Q9UHL4)
assay protocol: Inhibition of human recombinant DPP2 using Lys-Ala-pNA as substrate incubated for 15 mins by […]
# reported IC50; entries follow

{"columns": ["compound structure string", "IC50"],
 "data": [
  ["N#Cc1ccc(CCC(=O)NC23CC4CC(CC(NCC(=O)N5Cc6ccccc6C5)(C4)C2)C3)cc1", "> 5 µM"],
  ["O=C(NC(c1ccc(F)cc1)c1ccc(F)cc1)OC12CC3CC(CC(NCC(=O)N4Cc5ccccc5C4)(C3)C1)C2", "> 5 µM"],
  ["O=C(NCCF)OC12CC3CC(CC(NCC(=O)N4Cc5ccccc5C4)(C3)C1)C2", "> 5 µM"],
  ["CC(C)(C)COC(=O)NC12CC3CC(CC(NCC(=O)N4Cc5ccccc5C4)(C3)C1)C2", "> 5 µM"],
  ["CC(C)(C)NC(=O)NC12CC3CC(CC(NCC(=O)N4Cc5ccc(F)cc5C4)(C3)C1)C2", "> 5 µM"],
  ["CC(C)(C)NC(=O)NC12CC3CC(CC(NCC(=O)N4Cc5ccccc5C4)(C3)C1)C2", "> 5 µM"],
  ["O=C(NCCc1ccccc1)OC12CC3CC(CC(NCC(=O)N4Cc5ccccc5C4)(C3)C1)C2", "> 5 µM"],
  ["CC(C)(C)OC(=O)N[C@@H](Cc1ccccc1)C(=O)NC12CC3CC(CC(NCC(=O)N4Cc5ccccc5C4)(C3)C1)C2", "> 5 µM"]
]}
